Where do the numbers come from? From ChEMBL document CHEMBL2390846.

subjectOfTest: Dual specificity tyrosine-phosphorylation-regulated kinase 1A (Homo sapiens)
runDescription: Inhibition of DYRK1A (unknown origin) by bioluminescence assay
conditionInfo: read-out: IC50
IC50 under 300 nM gets Condition met, anything at or over 300 nM gets Condition not met.

Solved entries (count: 8):
Is the reported IC50 for FC(F)(F)c1cccc(Nc2nccc(-c3ccc4c(c3)OCO4)n2)c1 strictly below 300 nM? Condition met

Is the reported IC50 for Clc1ccc(CNc2nccc(-c3ccc4c(c3)OCO4)n2)cc1Cl strictly below 300 nM? Condition met

Is the reported IC50 for c1cc(-c2ccc3c(c2)OCO3)nc(Nc2ccc3c(c2)OCO3)n1 strictly below 300 nM? Condition met

Is the reported IC50 for c1ccc(CNc2ccnc(-c3ccc4c(c3)OCO4)n2)cc1 strictly below 300 nM? Condition not met

Is the reported IC50 for Clc1ccc(CNc2nccc(-c3ccc4c(c3)OCCO4)n2)cc1Cl strictly below 300 nM? Condition met

Is the reported IC50 for Clc1ccc(Nc2nccc(-c3ccc4c(c3)OCO4)n2)cc1 strictly below 300 nM? Condition not met

Is the reported IC50 for c1cncc(CNc2nccc(-c3ccc4cn[nH]c4c3)n2)c1 strictly below 300 nM? Condition met

Is the reported IC50 for c1cncc(CNc2nccc(-c3ccc4c(c3)OCO4)n2)c1 strictly below 300 nM? Condition met

Others:
Is the reported IC50 for Brc1cc(Br)cc(CNc2nccc(-c3ccc4c(c3)OCO4)n2)c1 strictly below 300 nM? Condition met

Is the reported IC50 for Clc1ccc(CNc2ncncc2-c2ccc3c(c2)OCO3)cc1 strictly below 300 nM? Condition not met

Is the reported IC50 for COc1cccc(-c2ccnc(NCc3ccc(Cl)c(Cl)c3)n2)c1 strictly below 300 nM? Condition not met

Is the reported IC50 for Clc1ccc(CNc2ccnc(-c3ccc4[nH]ncc4c3)n2)cc1Cl strictly below 300 nM? Condition not met

Is the reported IC50 for FC(F)(F)c1cc(Br)cc(Nc2nccc(-c3ccc4c(c3)OCO4)n2)c1 strictly below 300 nM? Condition not met
